Let's look at some molecules and their measured log10(IC50).
target: matriptase (Homo sapiens, UniProt Q9Y5Y6); construct: purchased R&D Systems 3946-SEB-010; assay: Fluorogenic kinetic enzyme inhibitor assay, matriptase; type: biochemical
Sequence (Q9Y5Y6 615-855 limits assumed): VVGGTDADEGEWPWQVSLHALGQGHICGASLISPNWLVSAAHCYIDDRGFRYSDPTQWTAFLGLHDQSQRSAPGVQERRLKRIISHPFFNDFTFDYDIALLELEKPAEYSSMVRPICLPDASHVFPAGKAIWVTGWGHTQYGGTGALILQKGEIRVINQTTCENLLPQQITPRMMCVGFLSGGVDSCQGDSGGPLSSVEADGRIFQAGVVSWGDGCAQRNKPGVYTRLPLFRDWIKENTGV
Give log10 of IC50, with IC50 taken in nM.

CCC(C)[C@H](NC(C)=O)C(=O)N[C@H](C(=O)N[C@@H](Cc1ccccc1)C(=O)N[C@@H](CCCNC(=N)N)C(=O)c1nc2ccccc2s1)C(C)O (some centres unmarked)	0.67
CC(=O)N[C@@H](Cc1c[nH]c2ccccc12)C(=O)N[C@@H](CC(C)C)C(=O)N[C@@H](Cc1ccccc1)C(=O)N[C@@H](CCCNC(=N)N)C(=O)c1nc2ccccc2s1	1.08
CC(=O)N[C@@H](CO)C(=O)N[C@@H](Cc1cncn1COCc1ccccc1)C(=O)N[C@@H](CC(C)C)C(=O)N[C@@H](CCCNC(=N)N)C(=O)c1nc2ccccc2s1	1.89
CC(=O)N[C@@H](Cc1ccccc1)C(=O)N[C@@H](CC(C)C)C(=O)N[C@@H](Cc1ccccc1)C(=O)N[C@@H](CCCNC(=N)N)C(=O)c1nc2ccccc2s1	0.86
CCC(C)[C@H](NC(C)=O)C(=O)N[C@@H](CCC(N)=O)C(=O)N[C@@H](C)C(=O)N[C@@H](CCCNC(=N)N)C(=O)c1nc2ccccc2s1 (some centres unmarked)	-1.00
CC(=O)N[C@H]1Cc2ccc(cc2)OCCCC[C@@H](C(=O)N[C@H](CCCNC(=N)N)C(=O)c2nc3ccccc3s2)NC(=O)[C@@H](Cc2c[nH]c3ccccc23)NC1=O [VD4162A]	1.49
CSCC[C@H](NC(C)=O)C(=O)N[C@@H](CCC(N)=O)C(=O)N[C@@H](Cc1ccccc1)C(=O)N[C@@H](CCCNC(=N)N)C(=O)c1nc2ccccc2s1	-0.26
CC(=O)N[C@H]1Cc2cccc(c2)Oc2ccc(cc2)C[C@@H](C(=O)N[C@H](CCCNC(=N)N)C(=O)c2nc3ccccc3s2)NC(=O)[C@H](CC(C)C)NC1=O [VD5123A]	2.68
CC(=O)N[C@H]1C/C=C\COc2ccc(cc2)C[C@@H](C(=O)N[C@@H](CCCNC(=N)N)C(=O)c2nc3ccccc3s2)NC(=O)[C@H](CC(C)C)NC1=O	1.15
CCC(C)[C@H](NC(C)=O)C(=O)N[C@@H](CO)C(=O)N[C@@H](Cc1ccccc1)C(=O)N[C@H](CCCNC(=N)N)C(=O)c1nc2ccccc2s1 (some centres unmarked)	1.26

Alright, here's another molecule for you.
Q: For the molecule shown here, CC(=O)N[C@@H](CO)C(=O)N[C@@H](CCCCN)C(=O)N[C@@H](Cc1ccccc1)C(=O)N[C@@H](CCCNC(=N)N)C(=O)c1nccs1 , give the reported log10(IC50).
Ans: 0.79
